These entries and their values trace back to patent US6777564B2.

# assayed_system: HIV-1 RT(p66) (Human immunodeficiency virus type 1 group M subtype B, UniProt P04585)
# Construct: 1-10 at 200 μg/ml to HIV-1 RT(p66)
# measurement_description: anti-virus activity test, HIV-1 RT(p66) inhibition
# Assay type: biochemical
# measurement_context: at 200 μg/ml, HIV-1 RT(p66)
quantity_kind: inhibition at 200 µg/mL (%)
Value expressed in %; do not type the unit.

N=C(N)NCC(=O)Nc1ccc(N)c2c1C(=O)c1ccccc1C2=O :: 99.5
N=C(N)NCC(=O)Nc1ccc2c(c1N)C(=O)c1ccccc1C2=O :: 99.7

Let us move to another entry and its inhibition at 200 µg/mL.
So what inhibition at 200 µg/mL did N=C(N)NCC(=O)Nc1ccc2c(c1)C(=O)c1ccc(N)cc1C2=O get with HIV-1 RT(p66) (Human immunodeficiency virus type 1 group M subtype B, UniProt P04585)?
99.7
